Measure: melting point

The following compounds have reported results that may help.
Compound	Result
CCCCc1nc2c(N)nc3cccnc3c2n1CCNC(=O)c1cc(C(C)(C)C)c(O)c(C(C)(C)C)c1 [Example 95]	248 to 250 °C
CC(C)Cn1cnc2c(N)nc3cnccc3c21 [Example 22]	306 to 307 °C
CC(C)CNc1c([N+](=O)[O-])c2nnnn2c2cnccc12 [Example 19]	173 to 174 °C
CCCCOCCCn1c(CCCC)nc2c(N)nc3cccnc3c21 [Example 80]	101 to 101.5 °C
CC(C)(O)CNc1c([N+](=O)[O-])cnc2cccnc12 [Example 59]	184.5 to 186 °C

Would you mind telling me what melting point value was observed for CCCCc1nc2c(N)nc3cccnc3c2n1CCCCNC(=O)OC(C)(C)C [Example 45] ?
148.5 to 149.5 °C

====

Tested on: TNF
Assay summary: Cytokine Induction in Human Cells: tumor necrosis factor (TNF) secreted by PBMCs, ELISA; note: call rule not given here
Assay type: cell-based
Recorded conditions: Dose Concentration 1.0 μM, 18 to 24 hours
Measure: TNF induction

Compound	TNF induction
CCCCc1nc2c(N)nc3cccnc3c2n1CCCCNC(=O)CC(C)(C)C [Example 172]	+
CCCCCCCOc1ccc(C(=O)NCCCCn2c(CCCC)nc3c(N)nc4cccnc4c32)cc1 [Example 190]	+
CCCCc1nc2c(N)nc3cccnc3c2n1CCCCNC(=O)C1CC1 [Example 173]	+
CCCCc1nc2c(N)nc3cccnc3c2n1CCCCNC(=O)c1ccc(C(OCCN(C)C)c2ccccc2)cc1 (centres unmarked) [Example 112]	+
CCCCc1nc2c(N)nc3cccnc3c2n1CCCCNC(=O)c1ccccc1OC [Example 188]	+

Would you mind telling me what TNF induction value was observed for CCCCc1nc2c(N)nc3cccnc3c2n1CCCCNC(=O)CCCCn1cnc2c1c(=O)n(C)c(=O)n2C [Example 105] ?
−

Would you mind telling me what TNF induction value was observed for CCCCc1nc2c(N)nc3cccnc3c2n1CCCCNC(=O)Cn1cc(C)c(O)nc1=O [Example 108] ?
−

Would you mind telling me what TNF induction value was observed for CCCCc1nc2c(N)nc3cccnc3c2n1CCCCNC(=O)NCc1ccccc1 [Example 53] ?
+

====

A collection of molecules and their measured melting point

The following molecules have reported results that may help.
Molecule	Measure	Result
CCCCc1nc2c(N)nc3cccnc3c2n1CCCCNC(=O)Cn1cc(C)c(O)nc1=O	melting point	242 to 244 °C
CCCCc1nc2c(N)nc3c(c2n1CCNC(=O)c1cc(C(C)(C)C)c(O)c(C(C)(C)C)c1)NCCC3	melting point	208 to 210 °C
CCCCc1nc2c(N)nc3cccnc3c2n1CCN	melting point	175 to 176 °C
Oc1cc2nnnn2c2ncccc12 [Example 3, Tetrazolo[1,5-a][1,8]naphthyridin-5-ol]	melting point	236 °C (dec.)

Would you mind telling me what melting point value was observed for Cc1nc2c(N)nc3cnccc3c2n1CC(C)C ?
322 to 324 °C

Would you mind telling me what melting point value was observed for CCCCc1nc2c(N)nc3cccnc3c2n1CCNC(=O)OC(C)(C)C ?
118 to 120 °C

Would you mind telling me what melting point value was observed for CC(C)CNc1cc2nnnn2c2cnccc12 ?
220 to 221 °C

Would you mind telling me what melting point value was observed for CCCCc1nc2c(N)nc3cccnc3c2n1CCNC(=O)C(CC(C)C)NC(=O)OC(C)(C)C (centres unmarked) ?
184 to 185 °C

Would you mind telling me what melting point value was observed for CCCCc1nc2c(N)nc3cccnc3c2n1CCNC(C)=O ?
228 to 230 °C

Would you mind telling me what melting point value was observed for CCCCc1nc2c(N)nc3cccnc3c2n1CCCCNC(=O)CSc1ccncc1 ?
127.5 to 129 °C
